- experimental_system: CRTH2 (Homo sapiens (Human), UniProt Q9Y5Y4)
- Sequence (Q9Y5Y4 whole entry): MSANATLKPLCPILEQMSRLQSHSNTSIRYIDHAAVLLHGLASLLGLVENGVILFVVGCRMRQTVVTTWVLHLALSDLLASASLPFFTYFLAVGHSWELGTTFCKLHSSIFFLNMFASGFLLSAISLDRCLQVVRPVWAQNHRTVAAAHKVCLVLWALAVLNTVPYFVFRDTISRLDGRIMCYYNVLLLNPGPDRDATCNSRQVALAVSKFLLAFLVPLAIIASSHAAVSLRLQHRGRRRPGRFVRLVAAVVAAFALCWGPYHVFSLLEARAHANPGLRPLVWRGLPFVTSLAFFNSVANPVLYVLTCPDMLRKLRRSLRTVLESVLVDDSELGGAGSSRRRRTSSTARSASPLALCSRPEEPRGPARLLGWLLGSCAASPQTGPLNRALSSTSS
- method_notes: CRTH2 receptor binding inhibitory activity ([3H]-PGD2 displacement, membranes of CRTH2-expressing K562 cell)
- condition_description: CRTH2 receptor binding, [3H]-PGD2 displacement, membrane of CRTH2-expressing K562 cell; categorized AAAA/AAA; read-out: Ki
- Protocol: Cell membrane was prepared from CRTH2-expressing K562 cell. The cell membrane (20 μg/well) was mixed with reaction buffer (50 mM Tris/HCl, pH 7.4, 10 mM MgCl2). Then, [^3H]-PGD2 was added to the mixture and incubated for 60 min at room temperature. […] Then, the mixture was filtrated with glass paper immediately. The filter paper was washed several times and radio activity on the filter was measured. […] Ki values for each compound were calculated from displacement curve.
pKi: −log10 of the molar value.
Reported pKi values follow for various molecules

Cc1noc([C@H]2C[C@@H](n3nc(CC(=O)O)c4ccc(F)cc43)CN2S(=O)(=O)c2ccc(OC(C)C)cc2)n1 [Compound I-364]: 5.30 to 7.00

## Task Give the measured pKi of CC(C)Oc1ccc(S(=O)(=O)N2C[C@H](n3nc(CC(=O)O)c4ccc(F)cc43)C[C@@H]2CC#N)cc1 [Compound I-18] .
## Result > 7.00

## Task Give the measured pKi of CCOc1ccc(S(=O)(=O)N2C[C@@H](C)[C@@H](n3nc(CC(=O)O)c4ccc(C)cc43)C2)c(F)c1 [Compound I-237] .
## Result > 7.00

## Task Give the measured pKi of CC(C)Oc1ccc(S(=O)(=O)N2C[C@H](n3nc(CC(=O)O)c4ccc(F)cc43)C[C@H]2c2ccccn2)cc1 [Compound I-357] .
## Result 5.30 to 7.00

## Task Give the measured pKi of CC(C)Oc1ccc(S(=O)(=O)N2C[C@@H](C)[C@@H](n3nc(CC(=O)O)c4cc(Cl)ccc43)C2)cc1 [Compound I-163] .
## Result 5.30 to 7.00

## Task Give the measured pKi of Cc1cccn(C[C@H]2C[C@@H](n3nc(CC(=O)O)c4ccc(F)cc43)CN2S(=O)(=O)c2ccc(OC(C)C)cc2)c1=O [Compound I-23] .
## Result > 7.00

## Task Give the measured pKi of CC(C)Oc1ccc(S(=O)(=O)N2C[C@H](n3nc(CC(=O)O)c4ccccc43)[C@](C)(F)C2)cc1 [Compound I-88] .
## Result > 7.00

## Task Give the measured pKi of CC(C)Oc1ccc(S(=O)(=O)N2C[C@H](n3nc(CC(=O)O)c4ccccc43)[C@@](C)(O)C2)cc1 [Compound I-86] .
## Result > 7.00

## Task Give the measured pKi of CC(C)Oc1ccc(S(=O)(=O)N2C[C@H](n3nc(CC(=O)O)c4ccc(F)cc43)C[C@@H]2c2nc[nH]n2)cc1 [Compound I-55] .
## Result 5.30 to 7.00
